Test: cytotoxicity in HPDE-C7 cells, cell-based, fluorescence, HTS (AID 430);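 also: cells exposed to compound for 48 hours before viability readout; 0% = vehicle and 100% = reference cytotoxic drug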
Setup Conditions: HPDE-C7 pancreatic duct cells viability, at 10 µM, active compounds read high
The campaign covered roughly 63,000 compounds. About 1,100 (1.7%) were called active. Shown is part of a subset that was picked to be rich in actives. Results with a measured potency or affinity are listed apart.
Assay Endpoint: cytotoxicity

The following molecules have reported results that may help.
[
  {
    "Molecule": "COc1ccc(N2CCN(C(=O)c3ccc(S(=O)(=O)N4CCOCC4)cc3)CC2)cc1",
    "cytotoxicity": "3.1% (inactive)"
  },
  {
    "Molecule": "O=C(CC(SCCO)c1ccc(F)cc1)c1ccco1 (centres undefined)",
    "cytotoxicity": "3.7% (inactive)"
  },
  {
    "Molecule": "Cc1cccc(-c2nnc(-c3ccccc3)o2)c1",
    "cytotoxicity": "-3.9% (inactive)"
  },
  {
    "Molecule": "CCOC(=O)c1c(-c2cccs2)csc1NC(=O)CN1CC(C)OC(C)C1 (centres undefined)",
    "cytotoxicity": "61.1% (active)"
  }
]

Prompt line: Item Cc1cccc(-c2nnc(NC(=O)c3ccc(Cl)cc3)o2)c1 has what recorded cytotoxicity?
Response line: 79.5% (active)

Prompt line: What would you report for CN(C)S(=O)(=O)n1cnc(-c2ccccc2)c1-c1ccccc1 ?
Response line: -7.9% (inactive)

Prompt line: What would you report for CCOc1ccc2nc(NCCNC(=O)C3CC3)c(C)cc2c1 ?
Response line: -13.7% (inactive)

Prompt line: What would you report for O=C(CCSc1ccccc1)Nc1ccc(S(=O)(=O)N2CCOCC2)cc1 ?
Response line: 1.8% (inactive)

Prompt line: What would you report for Cc1cc(N2CCN(c3ccccc3)CC2)n2c(n1)nc1ccccc12 ?
Response line: -8.6% (inactive)
